The reported numbers originate from paper PMC4336329.

In this section, each of the molecules is paired with its reported hERG current change (%, negative = inhibition) at 1uM.
Target: human ether-à-go-go-related gene (hERG) potassium channel (human, UniProt Q12809)
Sequence (Q12809 whole entry, looked up): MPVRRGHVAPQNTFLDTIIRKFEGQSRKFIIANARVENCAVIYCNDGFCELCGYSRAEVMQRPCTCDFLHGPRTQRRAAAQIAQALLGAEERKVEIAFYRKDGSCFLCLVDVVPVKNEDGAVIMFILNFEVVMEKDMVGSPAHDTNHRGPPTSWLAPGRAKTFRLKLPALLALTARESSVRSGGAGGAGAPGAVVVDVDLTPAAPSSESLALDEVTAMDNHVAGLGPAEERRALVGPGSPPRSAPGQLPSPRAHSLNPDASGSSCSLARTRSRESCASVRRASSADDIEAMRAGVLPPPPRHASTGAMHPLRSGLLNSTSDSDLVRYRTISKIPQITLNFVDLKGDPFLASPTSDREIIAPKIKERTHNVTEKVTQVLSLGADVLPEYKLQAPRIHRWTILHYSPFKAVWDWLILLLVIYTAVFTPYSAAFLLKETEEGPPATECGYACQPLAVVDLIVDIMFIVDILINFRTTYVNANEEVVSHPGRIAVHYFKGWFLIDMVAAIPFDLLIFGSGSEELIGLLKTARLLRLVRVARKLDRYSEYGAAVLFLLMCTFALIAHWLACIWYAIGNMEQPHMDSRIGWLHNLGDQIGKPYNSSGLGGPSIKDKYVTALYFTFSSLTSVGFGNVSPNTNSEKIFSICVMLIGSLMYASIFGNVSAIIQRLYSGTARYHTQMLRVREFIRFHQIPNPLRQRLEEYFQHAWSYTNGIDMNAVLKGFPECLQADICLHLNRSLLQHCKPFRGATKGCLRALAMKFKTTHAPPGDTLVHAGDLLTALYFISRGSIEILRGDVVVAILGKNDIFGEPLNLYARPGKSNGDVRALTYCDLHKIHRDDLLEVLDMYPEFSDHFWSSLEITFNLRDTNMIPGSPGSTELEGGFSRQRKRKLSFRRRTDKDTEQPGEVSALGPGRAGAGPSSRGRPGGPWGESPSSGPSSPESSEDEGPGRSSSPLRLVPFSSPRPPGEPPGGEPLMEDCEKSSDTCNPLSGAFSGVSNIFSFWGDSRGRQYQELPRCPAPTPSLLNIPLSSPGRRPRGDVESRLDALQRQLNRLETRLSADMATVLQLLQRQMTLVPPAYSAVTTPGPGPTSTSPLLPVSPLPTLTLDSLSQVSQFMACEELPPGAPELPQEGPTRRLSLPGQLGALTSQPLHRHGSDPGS
Assay: primary screen, population patch clamp on CHO cells stably expressing hERG; higher = less effect of the substance
Out of some 310,000 compounds screened, about 2,200 (0.71%) showed an effect of 50% or more. The effect is printed as a negative number. Many of the other results were omitted from the sample, so strong results are more common in it than they were.
Observable: hERG current change (%, negative = inhibition) at 1uM (%)

> print(dat)
                            compound.smiles  assay.result
1  CCCCC(=O)Nc1ccc2c(c1)nc(CN1CCN(C(=O)OCC)CC1)n2C          13.1
2  COC(=O)c1ccccc1NC(=O)CN1CCN(C23CC4CC(CC(C4)C2)C3)CC1           -75
3  O=C(CCn1c(=O)c2sccc2n(Cc2cc(=O)n3ccccc3n2)c1=O)NCc1ccco1         -25.1
4  Cc1onc(-c2c(Cl)cccc2Cl)c1C(=O)Nc1ccc(Cl)cn1          11.3
5  O=[N+]([O-])c1ccccc1/C=C\C=N\N1CCN(c2ccccc2)CC1         -7.95
6  CCn1cc(/C=C/C(=O)Nc2c(C)nn(Cc3ccccc3C)c2C)cn1          15.5
7    O=C(CN1CCN(Cc2ccccc2)CC1)Nc1ccc(Cl)cc1         -32.3
8  Cc1cccc(NC(=O)CN2CCN(CC(=O)NCc3ccc(Cl)cc3Cl)CC2)c1C           4.8
9  Cc1ccc(CNS(=O)(=O)c2ccc3c(c2)C(C)(C)C(=O)N3C)cc1          7.06
